Where do the numbers come from? From patent US20070166547A1.

# Tested on: plasma hemostasis
# method_description: Partial activated thromboplastin time (PATT) after intravenous administration
# Assay type: in vivo, rabbit
# test_conditions: dose 60.0 mg/kg intravenously
// values below are reported T, s after 15 minutes (PATT)
recorded_endpoint: T, s after 15 minutes (PATT) (s)

> print(dat)
                      smiles.representation      target.entity             recorded.endpoint  assay.value
1  Nc1cnc2c(=O)n([C@@H]3O[C@H](CO)[C@@H](O)[C@H]3O)[nH]c(=O)c2n1.[Na]  plasma hemostasis  T, s after 15 minutes (PATT)         32.0
2        Nc1cccc2c(=O)[nH][nH]c(=O)c12.[Na]  plasma hemostasis  T, s after 15 minutes (PATT)         32.2
3  Nc1ccnc2c(=O)n([C@@H]3O[C@H](CO)[C@@H](O)[C@H]3O)[nH]c(=O)c12  plasma hemostasis  T, s after 15 minutes (PATT)         32.3
4        O=c1[nH][nH]c(=O)c2c(Br)ncnc12.[K]  plasma hemostasis  T, s after 15 minutes (PATT)         32.5

---

// values below are reported MA - drop of optical density, % compared to control
# Test system: adenosine-sensitive receptors of thrombocytes
# method_description: ADP-induced aggregation of thrombocytes in vitro (Born method)
# Format: cell-based, rabbit
# test_conditions: 10^−7 M; 3 min incubation; ADP 10^−5 M
recorded_endpoint: MA - drop of optical density, % compared to control (%)

> print(dat)
                smiles.representation  unit.info  assay.value
1  Nc1cccc2c(=O)[nH][nH]c(=O)c12.[Na]          %         49.3
2     O=c1[nH][nH]c(=O)c2nccnc12.[Li]          %         50.1
3  O=c1[nH][nH]c(=O)c2c(Br)ncnc12.[K]          %         50.1

---

// values below are reported i, mkA (polarographic wave current)
# method_description: Polarographic study of electrochemical reduction (electrochemical activity)
# Assay type: physicochemical
# test_conditions: pH 7.2; 37° C.; 9·10^−4 M; forward trace; average for the group
recorded_endpoint: i, mkA (polarographic wave current) (mkA)

> print(dat)
                                   compound                    recorded.endpoint  assay.value
1             Nc1ncc2c(=O)[nH][nH]c(=O)c2n1  i, mkA (polarographic wave current)         0.26
2  O=c1[nH]n([C@@H]2O[C@H](CO)[C@@H](O)[C@H]2O)c(=O)c2ncnc(O)c12.[Na]  i, mkA (polarographic wave current)         0.26
3           O=c1[nH][nH]c(=O)c2ncncc12.[Li]  i, mkA (polarographic wave current)         0.26
4           O=c1[nH][nH]c(=O)c2ncccc12.[Na]  i, mkA (polarographic wave current)         0.31
5           O=c1[nH][nH]c(=O)c2nccnc12.[Li]  i, mkA (polarographic wave current)         0.33
6  COP(=O)(OC)C(C)(C)CC(C)=O [dimephosphon, reference compound]  i, mkA (polarographic wave current)         0.12
7  O=c1[nH]n([C@@H]2O[C@H](CO)[C@@H](O)[C@H]2O)c(=O)c2nc(O)cnc12.[Na].[Na]  i, mkA (polarographic wave current)         0.33
8  O=C([O-])c1ccc2c(=O)[nH][nH]c(=O)c2c1.O=C([O-])c1ccc2c(=O)[nH][nH]c(=O)c2c1.[Na+].[Na+]  i, mkA (polarographic wave current)         0.30
9        Nc1cccc2c(=O)[nH][nH]c(=O)c12.[Na]  i, mkA (polarographic wave current)         0.30

---

# System: plasma hemostasis
# method_description: Prothrombin time after intravenous administration
# Format: in vivo, rabbit
# test_conditions: dose 60.0 mg/kg intravenously
# Experimental: The investigations were performed on 72 rabbits of the “Chinchilla” breed with a mass of 2.5±0.3 kg, who were administered which solutions of compounds 2, 15, 21, 37 in doses of 15, 30 and 60 mg/kg intravenously. The experiments included the thrombin-test (series No. 7300) and the coagulability-test (series No. 5000) purchased from the scientific-and-production association (SPA) “Renam”, thromboplastin (series No. 240600) and calcium chloride purchased from the SPA “MedioLab” […]
recorded_endpoint: T, s after 15 minutes (prothrombin time) (s)

> print(dat)
                                   molecule                         recorded.endpoint  unit.info  assay.value
1  O=c1[nH][nH]c(=O)c2c(Br)ncnc12.[K] [Compound 37]  T, s after 15 minutes (prothrombin time)          s         12.1
2  Nc1cnc2c(=O)n([C@@H]3O[C@H](CO)[C@@H](O)[C@H]3O)[nH]c(=O)c2n1.[Na] [Compound 21]  T, s after 15 minutes (prothrombin time)          s         12.0
3  Nc1ccnc2c(=O)n([C@@H]3O[C@H](CO)[C@@H](O)[C@H]3O)[nH]c(=O)c12 [Compound 2]  T, s after 15 minutes (prothrombin time)          s         12.0
4  Nc1cccc2c(=O)[nH][nH]c(=O)c12.[Na] [Compound 15]  T, s after 15 minutes (prothrombin time)          s         12.0

---

// values below are reported half-wave potential more positive on reverse stroke than on forward stroke
# method_description: Polarographic study of electrochemical reduction (electrochemical activity)
# Format: physicochemical
# test_conditions: reverse stroke vs forward stroke
recorded_endpoint: half-wave potential more positive on reverse stroke than on forward stroke (mV)

> print(dat)
                                   compound  assay.value
1  COP(=O)(OC)C(C)(C)CC(C)=O [dimephosphon, reference compound]         50.0
2  O=c1[nH]n([C@@H]2O[C@H](CO)[C@@H](O)[C@H]2O)c(=O)c2nc(O)cnc12.[Na].[Na]         20.0
3  O=C([O-])c1ccc2c(=O)[nH][nH]c(=O)c2c1.O=C([O-])c1ccc2c(=O)[nH][nH]c(=O)c2c1.[Na+].[Na+]         30.0
4           O=c1[nH][nH]c(=O)c2ncncc12.[Li]         27.0

---

// values below are reported Nitrites in blood plasma, Control + Morphine + compound
# Tested on: metabolism of nitrogen oxide
# method_description: Morphine abstinence model: nitrites and nitrates NOX− in blood plasma, liver and brain
# Assay type: in vivo, rats Wistar
# test_conditions: morphinized rats then compound 20.0 mg/kg intramuscularly
recorded_endpoint: Nitrites in blood plasma, Control + Morphine + compound (mkmol/ml)

> print(dat)
                                   compound                 target.entity  assay.value
1  O=c1[nH][nH]c(=O)c2nccnc12.[Li] [Compound 25]  metabolism of nitrogen oxide        16.78
2  O=c1[nH][nH]c(=O)c2ncccc12.[Li] [Compound 6]  metabolism of nitrogen oxide        15.86
3  Nc1cccc2c(=O)[nH][nH]c(=O)c12.[Na] [Compound 15]  metabolism of nitrogen oxide        13.91
4  O=c1[nH][nH]c(=O)c2c(Br)ncnc12.[K] [Compound 37]  metabolism of nitrogen oxide        15.33

---

# Tested on: plasma hemostasis
# method_description: Thrombin time after intravenous administration
# Assay type: in vivo, rabbit
# test_conditions: dose 15.0 mg/kg intravenously
Marks after values point to notes of the source that are not given here.
// values below are reported T2, s after 30 minutes (thrombin time)
recorded_endpoint: T2, s after 30 minutes (thrombin time)

> print(dat)
                      smiles.representation  assay.value
1  Nc1cnc2c(=O)n([C@@H]3O[C@H](CO)[C@@H](O)[C@H]3O)[nH]c(=O)c2n1.[Na]      17.7* s
2  Nc1ccnc2c(=O)n([C@@H]3O[C@H](CO)[C@@H](O)[C@H]3O)[nH]c(=O)c12      17.0* s
3        O=c1[nH][nH]c(=O)c2c(Br)ncnc12.[K]      18.2* s
4        Nc1cccc2c(=O)[nH][nH]c(=O)c12.[Na]      18.5* s

---

# Tested on: indicator enzymes in blood plasma
# method_description: Morphine abstinence model: indicator enzymes AST, ALT, γ-GTP in blood plasma
# Assay type: in vivo, rats Wistar
# test_conditions: compound alone 20.0 mg/kg intramuscularly
# Procedure: The experiments were carried out on rats in series of 7 animals on each compound according to the invention. Non-morphinized animal with not administered with compounds according to the invention were used as a control group. […] Then the rats were decapitated, the blood from somnolent arteries was collected in test tubes with solution EDTA as an anticoagulant, centrifuged at 1500 g for 15 minutes at 4° C. […] The activity of AST, ALT and γ-GTP was determined by means of diagnostic sets DiaSys, Germany.
recorded_endpoint: AST, Ci, mE/l, Control + compound (mE/l)

> print(dat)
                smiles.representation  unit.info  assay.value
1  Nc1cccc2c(=O)[nH][nH]c(=O)c12.[Na]       mE/l       173.46
2  O=c1[nH][nH]c(=O)c2c(Br)ncnc12.[K]       mE/l       174.82
3     O=c1[nH][nH]c(=O)c2nccnc12.[Li]       mE/l       177.34
4     O=c1[nH][nH]c(=O)c2ncccc12.[Li]       mE/l       176.18
